Cited source: patent US20180002320A1

Tested on: Puccinia triticina
Experiment: Wheat Brown Rust (PUCCRT) fungicidal activity
Type: in vivo
Details: 72 h, Low Volume (121.5 g/H), 3 Day Curative, read-out: PUCCRT 3DC disease control
# pest or weed control at 121.5 g/ha annotations

Here is how some compounds turned out for pest or weed control at 121.5 g/ha.
molsmiles=COc1ccnc(C(=O)N[C@H]2COCC[C@H](Cc3ccc(F)cc3)[C@@H](OC(=O)C(C)C)[C@H](C)OC2=O)c1OCOC(C)=O assayvalue="> 80%"
molsmiles=CCC[C@H]1CCCC[C@H](NC(=O)c2nccc(OC)c2OCOC(C)=O)C(=O)O[C@@H](C)[C@@H]1OC(=O)C(C)C assayvalue="< 80%"

Looking up COc1ccnc(C(=O)N[C@H]2CCOC[C@H](OC(=O)C(C)C)[C@@H](Oc3ccccc3)[C@H](C)OC2=O)c1OCOC(C)=O , I see its pest or weed control at 121.5 g/ha listed as > 80%

Looking up COc1ccnc(C(=O)N[C@H]2CCOC[C@H](Oc3ccccc3)[C@@H](Oc3ccccc3)[C@H](C)OC2=O)c1OC(C)=O , I see its pest or weed control at 121.5 g/ha listed as > 80%

Looking up COc1ccnc(C(=O)N[C@H]2CCCC[C@@H]3OC(C)(C)O[C@H]3[C@H](C)OC2=O)c1OC(C)=O , I see its pest or weed control at 121.5 g/ha listed as > 80%
